Target: UniProt:A1B9E3
Sequence (A1B9E3 entry or part of it): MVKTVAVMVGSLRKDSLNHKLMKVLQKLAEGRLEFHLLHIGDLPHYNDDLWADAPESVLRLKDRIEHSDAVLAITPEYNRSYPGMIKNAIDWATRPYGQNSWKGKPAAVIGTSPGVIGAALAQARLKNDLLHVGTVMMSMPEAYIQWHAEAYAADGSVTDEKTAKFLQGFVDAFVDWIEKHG
Experiment: Fluorescence titration of free flavin by apoenzyme (dissociation constants)
Details: 25 mM Tris-HCl, pH 7.4, 25 °C; read-out: Kd of apoFerBHis6-flavin complex
MEASUREMENT NAME: Kd
Enter the number, and then the unit.

# value lookup — system UniProt:A1B9E3, readout Kd, item Cc1cc2nc3c(=O)[nH]c(=O)nc-3n(C[C@H](O)[C@H](O)[C@H](O)COP(=O)(O)O)c2cc1C [FMN, flavin mononucleotide]
27 nM
